test: Human Caco-2 passive permeability A to B Papp; type: in vitro ADME; conditions: apical pH 6.5, basolateral pH 7.4, efflux inhibitor cocktail
ASSAY_METRIC: Papp at 2 h (×10⁻⁶ cm/s)

1) C[C@@H]1Cc2c(ccc3[nH]ncc23)[C@@H](c2ccc(NC3CN(CCCF)C3)c(F)n2)N1CC(F)(F)F [Example 29]
24
2) COc1cc(NC2CN(CCCF)C2)ccc1[C@@H]1c2ccc3[nH]ncc3c2C[C@@H](C)N1CC(F)(F)F [Example 28]
24
3) C[C@@H]1Cc2c(ccc3[nH]ncc23)[C@@H](c2ccc(NC3CN(CCCF)C3)cn2)N1CC(F)(F)CO [Example 16]
1.7
4) C[C@@H]1Cc2c(ccc3[nH]ncc23)[C@@H](c2ccc(NC3CN(CCCF)C3)cn2)N1CC(F)F [Example 25]
5.9
5) COc1cc(NC2CN(CCCF)C2)ccc1[C@@H]1c2ccc3[nH]ncc3c2C[C@@H](C)N1CC(F)F [Example 21]
14.1
6) COc1cc(NC2CN(CCCF)C2)ccc1[C@@H]1c2ccc3[nH]ncc3c2C[C@@H](C)N1CC1(F)CC1 [Example 6]
1.8
7) C[C@@H]1Cc2c(ccc3[nH]ncc23)[C@@H](c2ccc(NC3CN(CCCF)C3)cn2)N1CC(F)(F)F [Example 17]
13.3

----------
experiment: Thermodynamic solubility (shake-flask); type: physicochemical; settings: aqueous phosphate buffer, 25 °C, pH 7.4, aqueous buffer, thermodynamic from solid, aqueous phosphate buffer pH 7.4, 24 hours
ASSAY_METRIC: solubility at 24 h (µM)

1) COc1cc(NC2CN(CCCF)C2)ccc1[C@@H]1c2ccc3[nH]ncc3c2C[C@@H](C)N1CC(C)(C)F
474
2) COc1cc(NC2CN(CCCF)C2)ccc1[C@@H]1c2ccc3[nH]ncc3c2C[C@@H](C)N1CC(C)F (single isomer, unassigned)
914
3) COCC(F)(F)CN1[C@H](c2ccc(NC3CN(CCCF)C3)cn2)c2ccc3[nH]ncc3c2C[C@H]1C
217
4) C[C@@H]1Cc2c(ccc3[nH]nc(F)c23)[C@@H](c2ccc(NC3CN(CCCF)C3)cn2)N1CC(F)(F)CO
848
5) C[C@@H]1Cc2c(ccc3[nH]ncc23)[C@@H](c2ccc(NC3CN(CCCF)C3)cn2)N1CC(F)F
964
6) COc1cc(N(C)C2CN(CCCF)C2)ccc1[C@@H]1c2ccc3[nH]ncc3c2C[C@@H](C)N1CC1(F)CC1
864
7) COc1cc(NC2CN(CCC(F)(F)F)C2)ccc1[C@@H]1c2ccc3[nH]ncc3c2C[C@@H](C)N1CC1(F)CC1
377
8) C[C@@H]1Cc2c(ccc3[nH]ncc23)[C@@H](c2c(F)cc(NC3CN(CCCF)C3)cc2F)N1CC(C)(F)CO (single isomer, unassigned)
339
9) COc1cc(NC2CN(CCCF)C2)ccc1[C@@H]1c2ccc3[nH]ncc3c2C[C@@H](C)N1CC(F)(F)F
150
10) CC(F)CN1[C@H](c2ccc(NC3CN(CCCF)C3)cn2)c2ccc3[nH]ncc3c2C[C@H]1C (single isomer, unassigned)
790
11) CC1(C)Cc2c(ccc3[nH]ncc23)[C@@H](c2ccc(NC3CN(CCCF)C3)cn2)N1CC(F)(F)F
738
12) C[C@@H]1Cc2c(ccc3[nH]nc(F)c23)[C@@H](c2cnc(NC3CN(CCCF)C3)cn2)N1CC(F)(F)F
794
13) COc1cc(OC2CN(CCCF)C2)ccc1[C@@H]1c2ccc3[nH]ncc3c2C[C@@H](C)N1CC(F)F
70
14) C[C@@H]1Cc2c(ccc3[nH]ncc23)[C@@H](c2ccc(NC3CN(CCCF)C3)cn2)N1CC(C)(C)F
870
15) C[C@@H]1Cc2c(ccc3[nH]ncc23)[C@@H](c2ccc(N(C)C3CN(CCCF)C3)cn2)N1CC1(F)CC1
615
16) COc1cc(NC2CN(CCCF)C2)ccc1[C@@H]1c2ccc3[nH]ncc3c2C[C@@H](C)N1CC(F)F
634
17) C[C@@H]1Cc2c(ccc3[nH]ncc23)[C@@H](c2ccc(NC3CN(CCCF)C3)cn2)N1CC(F)(F)CO
982
18) C[C@@H]1Cc2c(ccc3[nH]nc(F)c23)[C@@H](c2ccc(NC3CN(CCCF)C3)c(F)n2)N1CC(F)(F)CO
784
19) C[C@@H]1Cc2c(ccc3[nH]ncc23)[C@@H](c2ccc(NC3CN(CCCF)C3)cc2)N1CC(F)F
582
20) COc1cc(NC2CN(CCCF)C2)cnc1[C@@H]1c2ccc3[nH]ncc3c2C[C@@H](C)N1CC(F)(F)F
961
21) C[C@@H]1Cc2c(ccc3[nH]ncc23)[C@@H](c2ccc(NC3CN(CCCF)C3)cn2)N1CC(F)(F)F
833
22) COc1cc(NC2CN(CCCF)C2)ccc1[C@@H]1c2ccc3[nH]ncc3c2C[C@@H](C)N1CC(C)(F)F
152
23) C[C@@H]1Cc2c(ccc3[nH]ncc23)[C@@H](c2c(F)cc(NC3CN(CCCF)C3)cc2F)N1CC(F)(F)CO
297
